Parameter: pest or weed control at 125 g/ha. Scope: all listed entries.
- System: pigweed (Amaranthus retroflexus)
- ASSAY METHOD TEXT: Test A preemergence, pigweed
- Format: in vivo
- CONDITIONS: Amaranthus retroflexus, pre-emergence, 240 h; Preemergence, 125 g ai/ha; 0 to 100 scale (0 no effect, 100 complete control); read-out: Plant response rating, Pigweed

Recorded results for 5 molecules are shown here.
CCCCOc1c(Br)cccc1Oc1ncc(Cl)cn1 [Compound 13] : 100%
N#Cc1cccc(Oc2ncc(F)cn2)c1OCCCC(F)(F)F [Compound 4] : 100%
FC(F)(F)COc1c(Cl)cccc1Oc1ncc(Cl)cn1 [Compound 42] : 60%
N#Cc1cccc(Oc2ncc(Cl)cn2)c1OC/C=C/C(F)(F)F [Compound 8] : 100%
N#Cc1cccc(Oc2ncc(Cl)cn2)c1OCCC(F)(F)F [Compound 23] : 100%

The reported value for Cc1cccc(Oc2ncc(Cl)cn2)c1OCC(F)(F)F [Compound 63] in terms of pest or weed control at 125 g/ha is 0%

The reported value for N#Cc1cccc(Oc2ncc(F)cn2)c1OCC(F)(F)F [Compound 41] in terms of pest or weed control at 125 g/ha is 100%

The reported value for N#Cc1cccc(Oc2ncc(Cl)cn2)c1OCC(F)(F)C(F)(F)F [Compound 10] in terms of pest or weed control at 125 g/ha is 100%

The reported value for FC(F)C(F)(F)COc1c(Br)cccc1Oc1ncc(Cl)cn1 [Compound 18] in terms of pest or weed control at 125 g/ha is 100%

The reported value for N#Cc1cccc(Oc2ncc(Cl)cn2)c1OCCCC(F)(F)F [Compound 5] in terms of pest or weed control at 125 g/ha is 90%

###

Parameter: Plant response rating, Ducksalad. Scope: all listed entries.
- System: ducksalad (Heteranthera limosa)
- ASSAY METHOD TEXT: Test B flooded paddy test, ducksalad
- Assay type: in vivo
- CONDITIONS: 250 g ai/ha, Flood; visual rating after 13 to 15 days; scale 0 to 100, 0 is no effect, 100 is complete control
Give only the figure.

Recorded results for 3 molecules are shown here.
CCC(=O)COc1c(C#N)cccc1Oc1ncc(Cl)cn1 : 30
N#Cc1cccc(Oc2ncc(Cl)cn2)c1OCc1ccc(Cl)cc1 : 0
FCCCOc1c(Cl)cccc1Oc1ncc(Cl)cn1 : 70

The reported value for N#Cc1cccc(Oc2ncc(Cl)cn2)c1OCC(=O)CCC(F)(F)F in terms of Plant response rating, Ducksalad is 0

The reported value for Fc1cccc(Oc2ncc(Cl)cn2)c1OCCCC(F)(F)F in terms of Plant response rating, Ducksalad is 90

###

- System: pigweed (Amaranthus retroflexus)
- ASSAY METHOD TEXT: Test A preemergence, pigweed
- Type: in vivo
- CONDITIONS: Amaranthus retroflexus, pre-emergence, 240 h; Preemergence, 125 g ai/ha; 0 to 100 scale (0 no effect, 100 complete control); read-out: Plant response rating, Pigweed
Parameter: pest or weed control at 125 g/ha. Scope: all listed entries.
The reply should be a number in %, with the unit left off.

N#Cc1cccc(Oc2ncc(Cl)cn2)c1OCC(F)(F)F [Compound 1] : 100
CCCCOc1c(C#N)cccc1Oc1ncc(Cl)cn1 [Compound 35] : 100
FC(F)(F)COc1c(I)cccc1Oc1ncc(Cl)cn1 [Compound 65] : 100

The measured pest or weed control at 125 g/ha that Fc1cccc(Oc2ncc(Cl)cn2)c1OCC(F)(F)F [Compound 28] showed for pigweed (Amaranthus retroflexus) is 0

###

- Test system: foxtail, giant (giant foxtail, Setaria faberii)
- ASSAY METHOD TEXT: Test A postemergence, giant foxtail
- Type: in vivo
- CONDITIONS: Postemergence, 31 g ai/ha; 0 to 100 scale (0 no effect, 100 complete control)
QUANTITY NAME: Plant response rating, Foxtail, Giant

Recorded results for 3 compounds are shown here.
N#CCCCOc1c(I)cccc1Oc1ncc(Cl)cn1 [Compound 67] : 10
C#Cc1cccc(Oc2ncc(Cl)cn2)c1OCCCF [Compound 71] : 0
Cc1cccc(Oc2ncc(Cl)cn2)c1OCCCC#N [Compound 70] : 0

The reported value for Cl/C=C/COc1c(I)cccc1Oc1ncc(Cl)cn1 [Compound 68] in terms of Plant response rating, Foxtail, Giant is 30

The reported value for CCC(=O)COc1c(C#N)cccc1Oc1ncc(Cl)cn1 [Compound 75] in terms of Plant response rating, Foxtail, Giant is 0

The reported value for CCC(=O)COc1c(Br)cccc1Oc1ncc(Cl)cn1 [Compound 76] in terms of Plant response rating, Foxtail, Giant is 10

The reported value for O=C(COc1c(Br)cccc1Oc1ncc(Cl)cn1)C(F)(F)C(F)(F)F [Compound 73] in terms of Plant response rating, Foxtail, Giant is 0

The reported value for FC(F)(F)CCOc1c(I)cccc1Oc1ncc(Cl)cn1 [Compound 69] in terms of Plant response rating, Foxtail, Giant is 40

The reported value for N#Cc1cccc(Oc2ncc(Cl)cn2)c1OCCCC(F)(F)F [Compound 72] in terms of Plant response rating, Foxtail, Giant is 10

The reported value for N#Cc1cccc(Oc2ncc(Cl)cn2)c1OCC(=O)C(F)(F)C(F)(F)F [Compound 74] in terms of Plant response rating, Foxtail, Giant is 0

###

Parameter: pest or weed control at 500 g/ha. Scope: all listed entries.
- System: ryegrass, Italian (Italian ryegrass, Lolium multiflorum)
- ASSAY METHOD TEXT: Test A preemergence, Italian ryegrass
- Assay type: in vivo
- CONDITIONS: Lolium multiflorum, pre-emergence, 240 h; Preemergence, 500 g ai/ha; 0 to 100 scale (0 no effect, 100 complete control); read-out: Plant response rating, Ryegrass, Italian
The reply should be a number in %, with the unit left off.

The reported value for FC(F)C(F)(F)COc1c(Br)cccc1Oc1ncc(Cl)cn1 in terms of pest or weed control at 500 g/ha is 100

The reported value for Fc1cccc(Oc2ncc(Cl)cn2)c1OCC(F)(F)F in terms of pest or weed control at 500 g/ha is 20

The reported value for CCCCOc1c(Br)cccc1Oc1ncc(Cl)cn1 in terms of pest or weed control at 500 g/ha is 90

The reported value for CCCCOc1c(C#N)cccc1Oc1ncc(Cl)cn1 in terms of pest or weed control at 500 g/ha is 90

The reported value for N#Cc1cccc(Oc2ncc(Cl)cn2)c1OCC(F)(F)C(F)(F)F in terms of pest or weed control at 500 g/ha is 100

###

- Tested on: kochia (Kochia scoparia)
- ASSAY METHOD TEXT: Test A preemergence, kochia
- Type: in vivo
- CONDITIONS: Bassia scoparia, pre-emergence, 240 h; Preemergence, 31 g ai/ha; 0 to 100 scale (0 no effect, 100 complete control); read-out: Plant response rating, Kochia
Cut-off 40% on pest or weed control at 31 g/ha: below means 1, at or above means 0.

In plain terms, does N#Cc1cccc(Oc2ncc(Cl)cn2)c1OCCCC(F)(F)F [Compound 5] come in under 40% for pest or weed control at 31 g/ha?
0

In plain terms, does N#Cc1cccc(Oc2ncc(F)cn2)c1OCC(F)(F)F [Compound 41] come in under 40% for pest or weed control at 31 g/ha?
0

In plain terms, does Cc1cccc(Oc2ncc(Cl)cn2)c1OCC(F)(F)F [Compound 63] come in under 40% for pest or weed control at 31 g/ha?
1

In plain terms, does N#Cc1cccc(Oc2ncc(Cl)cn2)c1OCC(F)(F)F [Compound 1] come in under 40% for pest or weed control at 31 g/ha?
0

In plain terms, does FC(F)(F)COc1c(Cl)cccc1Oc1ncc(Cl)cn1 [Compound 42] come in under 40% for pest or weed control at 31 g/ha?
1

In plain terms, does FC(F)(F)COc1c(I)cccc1Oc1ncc(Cl)cn1 [Compound 65] come in under 40% for pest or weed control at 31 g/ha?
1

In plain terms, does N#Cc1cccc(Oc2ncc(Cl)cn2)c1OC/C=C/C(F)(F)F [Compound 8] come in under 40% for pest or weed control at 31 g/ha?
1

In plain terms, does N#Cc1cccc(Oc2ncc(Cl)cn2)c1OCCC(F)(F)F [Compound 23] come in under 40% for pest or weed control at 31 g/ha?
0

###

- Tested on: ragweed (common ragweed, Ambrosia elatior)
- ASSAY METHOD TEXT: Test A postemergence, ragweed
- Type: in vivo
- CONDITIONS: 500 g ai/ha, postemergence; 0 to 100 scale, 0 is no effect, 100 is complete control; approximately 10 days
QUANTITY NAME: Plant response rating, Ragweed
Give only the figure.

FC(F)COc1c(Br)cccc1Oc1ncc(Cl)cn1 : 40
CC(COc1c(C#N)cccc1Oc1ncc(Cl)cn1)CC(F)(F)F (stereo not shown) : 10
N#Cc1cccc(Oc2ncc(Cl)cn2)c1OCC(F)(F)C(F)F : 20
N#CCCCOc1c(F)cccc1Oc1ncc(Cl)cn1 : 50
N#Cc1cccc(Oc2ncc(Cl)cn2)c1OCc1ccc(Cl)cc1 : 60

The reported value for N#Cc1cccc(Oc2ncc(Cl)cn2)c1OCc1cccc(Cl)c1 in terms of Plant response rating, Ragweed is 20

The reported value for N#Cc1cccc(Oc2ncc(Cl)cn2)c1OCc1ccc(C(F)(F)F)cc1 in terms of Plant response rating, Ragweed is 30

The reported value for FCCCOc1c(F)cccc1Oc1ncc(Cl)cn1 in terms of Plant response rating, Ragweed is 20

The reported value for Fc1cccc(Oc2ncc(Cl)cn2)c1OC/C=C/C(F)(F)F in terms of Plant response rating, Ragweed is 0

The reported value for FC(F)C(F)(F)C(F)(F)C(F)(F)COc1c(Br)cccc1Oc1ncc(Cl)cn1 in terms of Plant response rating, Ragweed is 80
